Exercise: state measured composite z-score for each of the molecules provided.
- Tested on: glycogen synthase kinase-3 (GSK3A per assay name; protocol says GSK3B)
- assay comment: GSK3 binders on small-molecule microarrays, primary screen, biochemical, small-molecule microarray, 635 nm fluorescence, GSK3A (AID 1103); note: the record names both GSK3A and GSK3B
- measurement setup: small-molecule microarray binding, fluorescence 635 nm; higher = more signal

# input Name the recorded composite z-score for [N-]=[N+]=Nc1ccccc1C[C@@]1(C(=O)NCC(O)CO)N=C(c2ccc(OCCCO)cc2)O[C@@H]1c1ccccc1N=[N+]=[N-] (stereo partly drawn) .
# output 0.446

# input Please give the result for CC1C2C(CCCO)=CC(C3C(=O)N(C)C(=O)C23)N1Cc1cccc(OC(F)(F)F)c1 (stereo not drawn) too.
# output 1.3

# input Please give the result for CCOC(=O)C[C@H]1[C@H](OC(=O)c2ccc(-c3ccccc3)cc2)[C@@H](NC(=O)C2CCCCC2)c2cc(OCCCO)ccc2N1C(=O)Cc1ccc(OC)cc1 too.
# output 0.178

# input Please give the result for O=C(NC1CC1)[C@@H]1c2ccccc2C(=O)N(C2CCCCC2)[C@H]1c1ccc(CO)cc1 too.
# output 0.286

# input Please give the result for CC(C)Cc1ccc(CN2CC[C@@H](NC(=O)c3ccccc3)C2)cc1 too.
# output -1.11

# input Please give the result for O=C(NCCN1CCOCC1)[C@@H]1c2ccccc2C(=O)N(CC23CC4CC(CC(C4)C2)C3)[C@H]1c1ccc(CO)cc1 too.
# output 1.32

# input Please give the result for C[C@]1(C(=O)O)c2ccccc2C(=O)N(Cc2cc(C(F)(F)F)cc(C(F)(F)F)c2)[C@H]1c1ccc(CO)cc1 too.
# output -0.25

# input Please give the result for CCOC(=O)C=C1C[C@@H](c2cccc([N+](=O)[O-])c2)O[C@@H](c2cccc([N+](=O)[O-])c2)O1 too.
# output 1.27

* * *

- tested on: Torsin-1A (Homo sapiens)
- assay comment: torsin A binders from cell lysate, primary screen, small-molecule microarray, wild-type, 635/667 nm (AID 1149)
- measurement setup: COS7 hTOR1A-WT lysate, 635 nm fluorescence, higher = more signal
// class assignment uses composite z-score with these ranges: bin 0 = under 0.1, bin 1 = from 0.1 up to 0.4, bin 2 = 0.4 and over

# input Pick a category. Item: CCOC(=O)C[C@H]1[C@H](OC(=O)c2ccc(-c3ccccc3)cc2)[C@@H](NC(=O)c2ccc(-c3ccccc3)cc2)c2cc(OCCCO)ccc2N1C(=O)c1ccccc1
# output bin 1

# input Please give the result for Cc1ccc(S[C@]2(C(=O)NCC(C)C)CC(=O)N(C(C)C)[C@@H]2c2ccc(CO)cc2I)cc1 too.
# output bin 0

# input Please give the result for COc1ccc([Si](C)(C)[C@@H]2[C@@H](CC(=O)N3Cc4ccccc4C[C@H]3CO)O[C@]3(C(=O)N(Cc4ccc(I)cc4)c4ccccc43)[C@H]2C)cc1 too.
# output bin 1

# input Please give the result for COCCCNC(=O)[C@@]1(Cc2ccccc2I)c2ccccc2C(=O)N(Cc2ccccc2OC)[C@H]1c1ccc(CO)cc1 too.
# output bin 2

# input Please give the result for COc1ccc([Si](C)(C)[C@H]2[C@H](CC(=O)N(CCO)Cc3ccccc3)O[C@@]3(C(=O)N(Cc4cccc(N5CCCCC5=O)c4)c4ccccc43)[C@@H]2C)cc1 too.
# output bin 2

# input Please give the result for O=C1NC(=O)C2C1C=CC(C(O)C(O)CO)N2Nc1ccccn1 (centres undefined) too.
# output bin 2

# input Please give the result for CC(C)C[C@H]1NC(=O)CNC(=O)[C@@]23C(=O)N[C@@H](Cc4ccccc4)C2[C@H](C)[C@@]2(C)O[C@H]2C3/C=C/C/C=C\CNC1=O (some centres undefined) too.
# output bin 0

# input Please give the result for C=CC[C@]12N=C(c3ccc(OCCCO)cc3)O[C@H]1c1ccccc1N(CCC)C2=O too.
# output bin 1

* * *

- assay comment: modulators of S6 phosphorylation in cells, primary screen, cell-based, A549, cytoblot, luminescence, serum-stimulated (AID 1158);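 note: serum-stimulated A549 lung adenocarcinoma cells; signal is phosphorylated S6 detected by cytoblot immunostaining with HRP secondary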
- measurement setup: A549 phospho-S6 cytoblot, 5 h, higher = more signal
Is z-score at least -0.3? Then TRUE. If not, FALSE.

# input Threshold query (z-score >= -0.3) on C=CCNC(=O)[C@H]1[C@@H]2C(=O)O[C@@H](c3ccccc3)[C@@H](c3ccccc3)N2[C@@H](c2ccc(O)cc2)[C@]12C(=O)Nc1ccc(C#CCC(C(=O)OC)C(=O)OC)cc12
# output TRUE

# input Please give the result for COc1cc(Cc2cc3c(c(CCc4ccccc4)n2)[Si](C(C)C)(C(C)C)O[C@H]3c2ccccc2)cc(OC)c1OC too.
# output FALSE

# input Please give the result for CCCCC=C[C@@H](NC(=O)C(C)(C)C)c1ccccc1 too.
# output FALSE

# input Please give the result for O=C1c2ccccc2[C@@]2(Cc3ccccc3N(CC(F)(F)F)C2=O)[C@H](c2ccc(CO)cc2)N1Cc1ccccc1 too.
# output TRUE

# input Please give the result for Cc1ccc(N2C(=O)c3ccccc3[C@@H](C(=O)NCCN3CCOCC3)[C@@H]2c2ccc(CO)cc2)nc1 too.
# output FALSE

* * *

- assay comment: MM1S myeloma cell viability, profiling panel, resazurin fluorescence, basal, 24 h, PK04 Diversity Set (AID 1174);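 note: MM1S multiple myeloma cell line; test concentration not given here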
- measurement setup: called active from +8 up or from −8 down
Active and inactive are the calls of the source.
Answer with one of the outcomes given here: active, inactive

# input Tell me the recorded outcome of this test for O=C1NC(=O)C2C1C=CC(C(O)c1ccc(F)cc1)N2Nc1ccc(Cl)cc1Cl (stereo unspecified) .
# output inactive

# input Please give the result for O=C1N(Cc2ccccc2)c2ccccc2C[C@@]12N=C(c1ccc(OCCCO)cc1)O[C@H]2c1ccccc1 too.
# output inactive

# input Please give the result for COC(=O)C(CC#Cc1ccc2c(c1)[C@]1(C(=O)N2)[C@H](c2ccc(OCCO)cc2)N2[C@H](c3ccccc3)[C@H](c3ccccc3)OC(=O)[C@H]2[C@@H]1C(N)=O)C(=O)OC too.
# output inactive

# input Please give the result for C=C(C(=O)CC[C@H](OC(=O)c1ccccc1-c1ccccc1C(=O)O)c1ccc(OCCO)cc1)C(C)C too.
# output inactive

# input Please give the result for C=CCNC(=O)[C@H]1[C@@H]2C(=O)O[C@@H](c3ccccc3)[C@@H](c3ccccc3)N2[C@@H](c2ccc(OCCO)cc2)[C@]12C(=O)N(C(=O)OCCOC)c1ccc(C#CCC(C(=O)OC)C(=O)OC)cc12 too.
# output inactive

# input Please give the result for C=C(C(=O)CC[C@@H](OC(=O)c1ccccc1-c1ccccc1C(=O)O)c1ccc(CO)o1)C(C)C too.
# output inactive

# input Please give the result for [N-]=[N+]=NCc1ccccc1[C@H]1OC(c2ccc(OCCCO)cc2)=N[C@@]1(CCS(=O)(=O)c1ccccc1)C(=O)O too.
# output inactive

# input Please give the result for C=CCN1C(=O)[C@]2(O[C@H](CCO)[C@@H]([Si](C)(C)c3ccc(OC)cc3)[C@@H]2C)c2cc(N3C(=O)c4ccccc4Oc4ccccc43)ccc21 too.
# output active

# input Please give the result for CCOC(=O)C[C@H]1[C@H](OC(=O)c2ccc(-c3ccccc3)cc2)[C@@H](NC(=O)C2CCCCC2)c2cc(OCCCO)ccc2N1C(=O)Cc1ccc(OC)cc1 too.
# output inactive

# input Please give the result for O=C(NC1CC1)[C@@H]1c2ccccc2C(=O)N(C2CCCCC2)[C@H]1c1ccc(CO)cc1 too.
# output inactive

# input Please give the result for COC(=O)[C@H](Cc1ccccc1)N1CC(C)(OC)O[C@@H](Cc2ccccc2)[C@H]1/C=C/C1CC1 (stereo partly specified) too.
# output inactive

# input Please give the result for O=C1c2ccccc2[C@](Cc2ccccc2I)(C(=O)NCCN2CCOCC2)[C@H](c2ccc(CO)cc2)N1Cc1ccccc1C(F)(F)F too.
# output inactive

# input Please give the result for O=C1O[C@@H](c2ccccc2)[C@@H](c2ccccc2)N2[C@@H](c3ccccc3OCCO)[C@]3(C(=O)Nc4ccc(C#CC5(O)CCCCCC5)cc43)[C@@H](C(=O)N3CCCCCCC3)[C@H]12 too.
# output inactive

# input Please give the result for C=CCNC(=O)[C@H]1[C@@H]2C(=O)O[C@@H](c3ccccc3)[C@@H](c3ccccc3)N2[C@@H](c2ccc(OCCO)cc2)[C@]12C(=O)Nc1ccc(C#Cc3ccc(OC)cc3)cc12 too.
# output inactive

# input Please give the result for COc1ccc(C(=O)Nc2ccc(CN3C(=O)[C@]4(O[C@H](CC(=O)N(CCO)Cc5ccccc5)[C@@H]([Si](C)(C)c5ccc(OC)cc5)[C@@H]4C)c4ccccc43)cc2)cc1 too.
# output inactive

# input Please give the result for CC(C)(C)OC(=O)CC[C@@]1(C(=O)N2CCOCC2)N=C(c2ccc(OCCCO)cc2)O[C@@H]1c1ccccc1CN=[N+]=[N-] too.
# output inactive

# input Please give the result for [N-]=[N+]=NCc1ccccc1C[C@@]1(C(=O)NCCN2CCOCC2)N=C(c2ccc(OCCCO)cc2)O[C@@H]1c1ccccc1 too.
# output inactive

# input Please give the result for Cc1ccc(S[C@]2(C(=O)NC(C)C)CC(=O)N(Cc3ccccc3)[C@@H]2c2ccc(CO)cc2I)cc1 too.
# output inactive

# input Please give the result for COc1cc2c(cc1O)C(C)N(Cc1sc3ccccc3c1Cl)CC2 (stereo unspecified) too.
# output inactive

# input Please give the result for C=CCNC(=O)[C@@H]1[C@H]2C(=O)O[C@H](c3ccccc3)[C@H](c3ccccc3)N2[C@H](c2ccc(OCCO)cc2)[C@@]12C(=O)Nc1ccc(C#CCNC(N)=O)cc12 too.
# output inactive

# input Please give the result for C#CCN(C(=O)OC(C)(C)C)[C@H](CO)c1ccccc1 too.
# output inactive

Hello, the source for this data is PubChem BioAssay, in case you need it.
